Assayed target: Inadl_6, Q8NI35
Sequence (Q8NI35 1058-1167): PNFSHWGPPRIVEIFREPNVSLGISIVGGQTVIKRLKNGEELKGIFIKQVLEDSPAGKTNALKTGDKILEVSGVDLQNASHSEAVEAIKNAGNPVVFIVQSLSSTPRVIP
Test name: holdup assay
Parameters: key: below the threshold = too weak to quantify, mostly under pKd 3.1 to 4
Details: plain residues with an end cap or a label only (N-terminal biotin on a linker: ttds)
Endpoint name: pKd

> print(dat)
                         binder  endpoint.name       reported.value
1  SVWLRKETRV [CYSLTR2, Q9NS75]            pKd  below the threshold
2  PKTPPTDTSV [KIR3DL3, Q8N743]            pKd  below the threshold
3    RSLEEEESQL [GRASP, Q7Z6J2]            pKd                 4.05
4     ERKLSSESQV [LRP4, O75096]            pKd  below the threshold
5     QSARYRDTEL [TJP2, Q9UDY2]            pKd  below the threshold

Q) Name the reported pKd value associated with the binder IDNDTESTAL [ARHGAP17, Q68EM7]
A) 3.91

Q) Name the reported pKd value associated with the binder SRPQRTQTQV [HPV67-E6, A4U7F2]
A) below the threshold

Q) Name the reported pKd value associated with the binder GQDSREETQL [KCNT2, Q6UVM3]
A) 4.19
